System: NCI-H1355
measurement_notes: relative viability (nuclei count vs DMSO), 5 days (fraction); higher = more cells survive
measurement_conditions: first compound 0.5 µM
property_name: relative viability

molecule	obs_value
CC1(C)CCC(c2ccc(Cl)cc2)=C(CN2CCN(c3ccc(C(=O)NS(=O)(=O)c4ccc(N[C@H](CCN5CCOCC5)CSc5ccccc5)c(S(=O)(=O)C(F)(F)F)c4)cc3)CC2)C1 [Navitoclax] + Nc1ncn([C@H]2C[C@H](O)[C@@H](CO)O2)c(=O)n1 [Decitabine] (partner 2 µM)	0.347
CC1(C)CCC(c2ccc(Cl)cc2)=C(CN2CCN(c3ccc(C(=O)NS(=O)(=O)c4ccc(N[C@H](CCN5CCOCC5)CSc5ccccc5)c(S(=O)(=O)C(F)(F)F)c4)cc3)CC2)C1 [Navitoclax] + NC(=O)Nc1cc(-c2cccc(F)c2)sc1C(=O)N[C@H]1CCCNC1 [AZD7762] (partner 0.2 µM)	0.668
CC1(C)CCC(c2ccc(Cl)cc2)=C(CN2CCN(c3ccc(C(=O)NS(=O)(=O)c4ccc(N[C@H](CCN5CCOCC5)CSc5ccccc5)c(S(=O)(=O)C(F)(F)F)c4)cc3)CC2)C1 [Navitoclax] + CC(=O)c1c(C)c2cnc(Nc3ccc(N4CCNCC4)cn3)nc2n(C2CCCC2)c1=O [Palbociclib] (partner 0.5 µM)	0.409
CC1(C)CCC(c2ccc(Cl)cc2)=C(CN2CCN(c3ccc(C(=O)NS(=O)(=O)c4ccc(N[C@H](CCN5CCOCC5)CSc5ccccc5)c(S(=O)(=O)C(F)(F)F)c4)cc3)CC2)C1 [Navitoclax] + CC(=O)Nc1cccc(-n2c(=O)n(C3CC3)c(=O)c3c(Nc4ccc(I)cc4F)n(C)c(=O)c(C)c32)c1 [Trametinib] (partner 0.02 µM)	0.458

====

Test system: BEN
measurement_notes: relative viability (nuclei count vs DMSO), 5 days (fraction); higher = more cells survive
measurement_conditions: first compound 0.1 µM
Listed here: items and their measured relative viability.

compound	measured_on	relative viability
NC(=O)Nc1cc(-c2cccc(F)c2)sc1C(=O)N[C@H]1CCCNC1 [AZD7762] + Cc1cc(Nc2cc(N3CCN(C)CC3)nc(Sc3ccc(NC(=O)C4CC4)cc3)n2)n[nH]1 [Tozasertib] (partner 0.1 µM)	BEN	0.539
NC(=O)Nc1cc(-c2cccc(F)c2)sc1C(=O)N[C@H]1CCCNC1 [AZD7762] + O=C(CCCCCCC(=O)Nc1ccccc1)NO [Vorinostat] (partner 1 µM)	BEN	0.633
NC(=O)Nc1cc(-c2cccc(F)c2)sc1C(=O)N[C@H]1CCCNC1 [AZD7762] + COc1cc2c(Oc3ccc(NC(=O)C4(C(=O)Nc5ccc(F)cc5)CC4)cc3F)ccnc2cc1OCCCN1CCOCC1 [Foretinib] (partner 0.25 µM)	BEN	0.621
NC(=O)Nc1cc(-c2cccc(F)c2)sc1C(=O)N[C@H]1CCCNC1 [AZD7762] + CCNC(=O)c1noc(-c2cc(C(C)C)c(O)cc2O)c1-c1ccc(CN2CCOCC2)cc1 [Luminespib] (partner 0.01 µM)	BEN	0.188

====

Test system: NCI-H1703
measurement_notes: relative viability (nuclei count vs DMSO), 5 days (fraction); higher = more cells survive
measurement_conditions: first compound 2.53 µM

compound	relative viability
Oc1nc(-c2ccc(C(F)(F)F)cc2)nc2c1CSCC2 [XAV939] + COc1cc2c(Oc3ccc(NC(=O)C4(C(=O)Nc5ccc(F)cc5)CC4)cc3F)ccnc2cc1OCCCN1CCOCC1 [Foretinib] (partner 0.25 µM)	0.374
C=C1C(=O)O[C@@H](CCCCCCCC)[C@@H]1C(=O)O [C-75] + COc1cc2c(Oc3ccc(NC(=O)C4(C(=O)Nc5ccc(F)cc5)CC4)cc3F)ccnc2cc1OCCCN1CCOCC1 [Foretinib] (partner 0.25 µM)	0.355
Oc1nc(-c2ccc(C(F)(F)F)cc2)nc2c1CSCC2 [XAV939] + Cc1nc(NC(=O)N2CCC[C@H]2C(N)=O)sc1-c1ccnc(C(C)(C)C(F)(F)F)c1 [Alpelisib] (partner 2 µM)	0.324
Oc1nc(-c2ccc(C(F)(F)F)cc2)nc2c1CSCC2 [XAV939] + C[C@]1(O)C[C@@H](c2nc(-c3ccc4ccc(-c5ccccc5)nc4c3)c3c(N)nccn32)C1 [Linsitinib] (partner 1 µM)	0.584
Oc1nc(-c2ccc(C(F)(F)F)cc2)nc2c1CSCC2 [XAV939] + CS(=O)(=O)CCNCc1ccc(-c2ccc3ncnc(Nc4ccc(OCc5cccc(F)c5)c(Cl)c4)c3c2)o1 [Lapatinib] (partner 2 µM)	0.959
C=C1C(=O)O[C@@H](CCCCCCCC)[C@@H]1C(=O)O [C-75] + Cc1nc(NC(=O)N2CCC[C@H]2C(N)=O)sc1-c1ccnc(C(C)(C)C(F)(F)F)c1 [Alpelisib] (partner 2 µM)	0.28
C=C1C(=O)O[C@@H](CCCCCCCC)[C@@H]1C(=O)O [C-75] + CC1(C)CCC(c2ccc(Cl)cc2)=C(CN2CCN(c3ccc(C(=O)NS(=O)(=O)c4ccc(N[C@H](CCN5CCOCC5)CSc5ccccc5)c(S(=O)(=O)C(F)(F)F)c4)cc3)CC2)C1 [Navitoclax] (partner 0.5 µM)	1.09
